target: T1, AFP158/HLA-A*02:01 complex (human); assay: SPR, crude scFv captured;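 further: Peptide–MHC complex flowed at several concentrations over sensorchip-captured scFv, Kd derived from on- and off-rates obtained from the association and dissociation curves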
T1 construct: biotinylated on the BSP by BirA for ELISA and panning; also called biotinylated AFP158/HLA-A*02:01 complex; Bio-AFP158
The entries below are paired with their reported pKd.
pKd is a log-scale quantity: -log10 of the concentration expressed in molar.

Completed entries (count: 2):
>>> value_observed("AS170036 VL1VH1 HP58N (scFv) scFv: QSALTQPRSVSGSPGQSVTISCAGTSSDVGSENYVSWYQQHPGKAPKLMIYQVNKRASGVPDRFSGSKSGNTASLTISGLQAEDEADYYCASYRSSDHNIVFGGGTKLTVLGGGGSGGGGSGGGGSEVQLVESGGGLVQPGGSLRLSCAASGFTFSSYAMSWVRQAPGKGLEWVSTINSGTGSNYYADSVKGRFTISRDNSKNTLYLQMNSLRAEDTAVYYCAKNFFDGSWFLGPPAMDYWGQGTLVTVSSHHHHHH")
5.82
>>> value_observed("AS170036 VL1VH1 HD102P (scFv) scFv: QSALTQPRSVSGSPGQSVTISCAGTSSDVGSENYVSWYQQHPGKAPKLMIYQVNKRASGVPDRFSGSKSGNTASLTISGLQAEDEADYYCASYRSSDHNIVFGGGTKLTVLGGGGSGGGGSGGGGSEVQLVESGGGLVQPGGSLRLSCAASGFTFSSYAMSWVRQAPGKGLEWVSTINSGTGSPYYADSVKGRFTISRDNSKNTLYLQMNSLRAEDTAVYYCAKNFFPGSWFLGPPAMDYWGQGTLVTVSSHHHHHH")
6.06

Requested field: pKd. Item: AS170036 VL1VH1 HP110N (scFv) scFv: QSALTQPRSVSGSPGQSVTISCAGTSSDVGSENYVSWYQQHPGKAPKLMIYQVNKRASGVPDRFSGSKSGNTASLTISGLQAEDEADYYCASYRSSDHNIVFGGGTKLTVLGGGGSGGGGSGGGGSEVQLVESGGGLVQPGGSLRLSCAASGFTFSSYAMSWVRQAPGKGLEWVSTINSGTGSPYYADSVKGRFTISRDNSKNTLYLQMNSLRAEDTAVYYCAKNFFDGSWFLGPNAMDYWGQGTLVTVSSHHHHHH
5.92
